# Test system: P. pastrois strain yGLY21058
# EXPERIMENT DESCRIPTION: Fermentability of sugars or sugar alcohols on M agar plate
# Format: cell-based, Pichia pastoris
# CONDITION SUMMARY: single carbon source 1% w/v, 6 days at 30° C.

- MOLECULE: "OC[C@H]1O[C@H](OCC2O[C@@H](O)[C@H](O)[C@@H](O)[C@@H]2O)[C@H](O)[C@@H](O)[C@H]1O (stereo partly shown)"
  Growth on M agar: "+"
- MOLECULE: "OC[C@@H](O)[C@@H](O[C@H]1O[C@H](CO)[C@@H](O)[C@H](O)[C@H]1O)[C@H](O)[C@@H](O)CO"
  Growth on M agar: "−"
- MOLECULE: "O=C[C@H](O)[C@H](O)[C@H](O)CO"
  Growth on M agar: "+"
- MOLECULE: "O=C[C@@H](O)[C@H](O)[C@H](O)CO"
  Growth on M agar: "−"
- MOLECULE: "OC[C@@H](O)[C@@H](O)[C@@H](O)CO"
  Growth on M agar: "−"
- MOLECULE: "OCC(O)CO"
  Growth on M agar: "+++"
- MOLECULE: "OC[C@@H](O)[C@@H](O)[C@H](O)[C@@H](O)CO"
  Growth on M agar: "+++"
- MOLECULE: "O=C(CO)[C@@H](O)[C@H](O)[C@@H](O)CO"
  Growth on M agar: "+"
- MOLECULE: "OC[C@H](O)C(O)[C@@H](O)CO"
  Growth on M agar: "−"
- MOLECULE: "OC[C@@H](O)[C@H](O)[C@@H](O)CO"
  Growth on M agar: "−"
